# Tested On: T1, Cyno CD98hc ECD Avi-His (cynomolgus macaque, UniProt P08195 105-529 (human entry))
# T1 construct: biotinylated on the Avi tag where captured on streptavidin; also called Cyno CD98-AVI-His; Cyno CD98hc-AVI-His
# T1 chain: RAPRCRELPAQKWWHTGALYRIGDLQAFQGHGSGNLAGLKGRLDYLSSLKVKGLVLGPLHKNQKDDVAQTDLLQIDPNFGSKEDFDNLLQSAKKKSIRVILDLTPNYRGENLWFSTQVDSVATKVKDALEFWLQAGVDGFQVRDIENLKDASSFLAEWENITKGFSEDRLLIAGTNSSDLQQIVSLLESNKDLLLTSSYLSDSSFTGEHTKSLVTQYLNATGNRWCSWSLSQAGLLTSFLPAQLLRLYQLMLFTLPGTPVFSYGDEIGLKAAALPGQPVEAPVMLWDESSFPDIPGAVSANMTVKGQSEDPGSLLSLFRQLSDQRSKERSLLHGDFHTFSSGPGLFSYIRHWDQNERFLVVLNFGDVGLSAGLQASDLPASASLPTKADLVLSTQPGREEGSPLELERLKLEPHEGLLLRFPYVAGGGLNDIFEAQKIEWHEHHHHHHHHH
# Measurement Description: ELISA, hybridoma supernatant
# Method: Briefly, 96-well polystyrene plates were coated with 5 μg/ml of streptavidin (Thermo Fisher, Cat #PI21125) in coating buffer (0.05M carbonate buffer, pH 9.6, Sigma, Cat #C3041) overnight at 4° C. Coated plates were then blocked with ELISA diluent (PBS+0.5% BSA+0.05% Tween20) for one hour. […] The plates were read for absorbance at 450 nm on a SpectraMax M5 (Molecular Devices, Sunnyvale, CA) using SoftMax Pro software.
Measure Name: OD450
Give bare numbers.

Past entries and their recorded results:
# Binder, OD450
data = [
    ("CD98HC.04.006 (antibody, V domains shown, hybridoma IgG) VH: EVNLVESGGDLVQPGGSLRLSCATSGFTFTDYFMSWVRQPPGKALEWLGFIRNKAYGYTTEYSASVKGRFTISRDNSQSIFYLQMNTLRLEDSATYYCARGPFISTAPFAYWGQGTLVTVSA VL: DIVMSQSPSSLAVSVGETVTMSCKSSQSLLYSSNQKNYLAWYQQKPGQSPKLLIYWGSTRESGVPDRFTGSGSGTDFTLTISSVKAEDLAVYYCQHYYGYPWTFGGGTKLEIK", 1.71),
    ("CD98HC.04.058 (antibody, V domains shown, hybridoma IgG) VH: QVQLQQSGAELVRPGVSVKISCKASGYTFTDHTMHWVKQSHARSLEWIGVISTYFGDASYNPKFKGKATMTVDKSSNTAYMELARLTSEDSAIYYCARVGGRLRLGYYFDYWGQGTTLTVSS VL: NIMMTQSPSSLAVSAGEKVTMNCKSSQTVLYSSNQKNYLAWYQQKPGQSPKLLIYWASTRESGVPDRFTGSGSGTDFTLTISSVQVEDLAVYYCHQYLSSYTFGGGTKLEIK", 1.73),
]

Query: Form field: reported OD450 of CD98HC.04.011 (antibody, V domains shown, hybridoma IgG) VH: DVQLQESGPDLVKPSQSLSLTCSVTVYSFTSVYSWHWIRQFPGNKLEWMGYIHDSGTTNYNPSLKSRISVTRDTSKNQFFLQLNSVTTEDTATYYCARGRPYGYDGFAYWGQGTLVTVSA VL: DIQMTQSSSYLSVSLGDRVTITCKASDHINNWLAWYQQKPGNAPRLLITGAVNLETGVPSRFSGSGSGKDYTLSITSLQTEDVATYYCQQYWSIPRTFGGGTNLEIK
Result: 1.76
